protocolSummary: Short-term stability in spiked pooled human plasma (bench-top, 4 °C, 56 °C)
runConditions: validation standard LLOV
Exercise: for every item that follows, state its recorded Short-time stability (24h, RT, without daylight) Accuracy [%].
Just the number please, in %, no unit attached.

molecule Cn1cnc2c(F)c(Nc3ccc(Br)cc3F)c(C(=O)NOCCO)cc21 [Binimetinib] , Short-time stability (24h, RT, without daylight) Accuracy [%] observed: 106.0

molecule CCCS(=O)(=O)Nc1ccc(F)c(C(=O)c2c[nH]c3ncc(-c4ccc(Cl)cc4)cc23)c1F [Vemurafenib] , Short-time stability (24h, RT, without daylight) Accuracy [%] observed: 82.9

molecule COC(=O)N[C@@H](C)CNc1nccc(-c2cn(C(C)C)nc2-c2cc(Cl)cc(NS(C)(=O)=O)c2F)n1 [Encorafenib] , Short-time stability (24h, RT, without daylight) Accuracy [%] observed: 104.0

molecule COc1cc2nccc(Oc3ccc(NC(=O)Nc4cc(C)on4)c(Cl)c3)c2cc1OC [Tivozanib] , Short-time stability (24h, RT, without daylight) Accuracy [%] observed: 100.8

molecule O=C(c1cc(Cc2n[nH]c(=O)c3ccccc23)ccc1F)N1CCN(C(=O)C2CC2)CC1 [Olaparib] , Short-time stability (24h, RT, without daylight) Accuracy [%] observed: 110.6

molecule Cc1ccc(Nc2nccc(N(C)c3ccc4c(C)n(C)nc4c3)n2)cc1S(N)(=O)=O [Pazopanib] , Short-time stability (24h, RT, without daylight) Accuracy [%] observed: 105.8

molecule C[C@H]1Oc2cc(cnc2N)-c2c(nn(C)c2C#N)CN(C)C(=O)c2ccc(F)cc21 [Lorlatinib] , Short-time stability (24h, RT, without daylight) Accuracy [%] observed: 97.8

molecule CCC1=C[C@@H]2CN(C1)Cc1c([nH]c3ccccc13)[C@@](C(=O)OC)(c1cc3c(cc1OC)N(C)[C@H]1[C@@](O)(C(=O)OC)[C@H](OC(C)=O)[C@]4(CC)C=CCN5CC[C@]31[C@@H]54)C2 [Vinorelbine] , Short-time stability (24h, RT, without daylight) Accuracy [%] observed: 96.4

molecule COc1cc2nccc(Oc3ccc(NC(=O)NC4CC4)c(Cl)c3)c2cc1C(N)=O [Lenvatinib] , Short-time stability (24h, RT, without daylight) Accuracy [%] observed: 110.0

molecule CCN1CCN(Cc2ccc(Nc3ncc(F)c(-c4cc(F)c5nc(C)n(C(C)C)c5c4)n3)nc2)CC1 [Abemaciclib] , Short-time stability (24h, RT, without daylight) Accuracy [%] observed: 88.2

molecule COc1cc(N2CCC(N3CCN(C)CC3)CC2)ccc1Nc1ncc(Cl)c(Nc2ccccc2P(C)(C)=O)n1 [Brigatinib] , Short-time stability (24h, RT, without daylight) Accuracy [%] observed: 55.1

molecule CNCc1ccc(-c2[nH]c3cc(F)cc4c3c2CCNC4=O)cc1 [Rucaparib] , Short-time stability (24h, RT, without daylight) Accuracy [%] observed: 99.7

molecule CCOc1cc2ncc(C#N)c(Nc3ccc(OCc4ccccn4)c(Cl)c3)c2cc1NC(=O)/C=C/CN(C)C [Neratinib] , Short-time stability (24h, RT, without daylight) Accuracy [%] observed: -39.1

molecule Cc1c(C(=O)Nc2ccc(N3C[C@@H](C)O[C@@H](C)C3)nc2)cccc1-c1ccc(OC(F)(F)F)cc1 [Sonidegib] , Short-time stability (24h, RT, without daylight) Accuracy [%] observed: 86.1

molecule CO[C@@H]1[C@H](N(C)C(=O)c2ccccc2)C[C@H]2O[C@]1(C)n1c3ccccc3c3c4c(c5c6ccccc6n2c5c31)C(=O)NC4 [Midostaurin] , Short-time stability (24h, RT, without daylight) Accuracy [%] observed: 85.7

###

protocolSummary: Long-term stability in spiked pooled human plasma
runConditions: validation standard LLOV
recordedEndpoint: Long-term stability, 6 weeks, 4°C, without daylight Accuracy [%]

compound `CC(=O)Nc1cccc(-n2c(=O)n(C3CC3)c(=O)c3c(Nc4ccc(I)cc4F)n(C)c(=O)c(C)c32)c1` , Long-term stability, 6 weeks, 4°C, without daylight Accuracy [%] observed: 101.5%

compound `Cc1ccc(Nc2nccc(N(C)c3ccc4c(C)n(C)nc4c3)n2)cc1S(N)(=O)=O` , Long-term stability, 6 weeks, 4°C, without daylight Accuracy [%] observed: 99.0%

compound O=C1CN2Cc3c(ccc(Cl)c3Cl)N=C2N1 [Anagrelide] , Long-term stability, 6 weeks, 4°C, without daylight Accuracy [%] observed: 33.5%

compound `C=CC(=O)Nc1cc(Nc2nccc(-c3cn(C)c4ccccc34)n2)c(OC)cc1N(C)CCN(C)C` , Long-term stability, 6 weeks, 4°C, without daylight Accuracy [%] observed: 5.4%

compound `CCc1cc2c(cc1N1CCC(N3CCOCC3)CC1)C(C)(C)c1[nH]c3cc(C#N)ccc3c1C2=O` , Long-term stability, 6 weeks, 4°C, without daylight Accuracy [%] observed: 75.7%

compound `C[C@H]1Oc2cc(cnc2N)-c2c(nn(C)c2C#N)CN(C)C(=O)c2ccc(F)cc21` , Long-term stability, 6 weeks, 4°C, without daylight Accuracy [%] observed: 97.1%

compound `C[C@]12CC[C@H](O)CC1=CC[C@@H]1[C@@H]2CC[C@]2(C)C(c3cccnc3)=CC[C@@H]12` , Long-term stability, 6 weeks, 4°C, without daylight Accuracy [%] observed: 110.7%

compound `COc1cc(N2CCC(N3CCN(C)CC3)CC2)ccc1Nc1ncc(Cl)c(Nc2ccccc2P(C)(C)=O)n1` , Long-term stability, 6 weeks, 4°C, without daylight Accuracy [%] observed: 89.6%

compound `CCN(CC)CCNC(=O)c1c(C)[nH]c(/C=C2\C(=O)Nc3ccc(F)cc32)c1C` , Long-term stability, 6 weeks, 4°C, without daylight Accuracy [%] observed: 96.2%

compound `CN(C)C(=O)c1cc2cnc(Nc3ccc(N4CCNCC4)cn3)nc2n1C1CCCC1` , Long-term stability, 6 weeks, 4°C, without daylight Accuracy [%] observed: 76.6%

compound `CCC1=C[C@@H]2CN(C1)Cc1c([nH]c3ccccc13)[C@@](C(=O)OC)(c1cc3c(cc1OC)N(C)[C@H]1[C@@](O)(C(=O)OC)[C@H](OC(C)=O)[C@]4(CC)C=CCN5CC[C@]31[C@@H]54)C2` , Long-term stability, 6 weeks, 4°C, without daylight Accuracy [%] observed: 85.9%

compound `COc1cc2c(Nc3ccc(Br)cc3F)ncnc2cc1OCC1CCN(C)CC1` , Long-term stability, 6 weeks, 4°C, without daylight Accuracy [%] observed: 85.4%

compound `CNCc1ccc(-c2[nH]c3cc(F)cc4c3c2CCNC4=O)cc1` , Long-term stability, 6 weeks, 4°C, without daylight Accuracy [%] observed: 104.4%

compound `O=C(c1cc(Cc2n[nH]c(=O)c3ccccc23)ccc1F)N1CCN(C(=O)C2CC2)CC1` , Long-term stability, 6 weeks, 4°C, without daylight Accuracy [%] observed: 105.6%

compound `COC(=O)c1ccc2c(c1)NC(=O)/C2=C(\Nc1ccc(N(C)C(=O)CN2CCN(C)CC2)cc1)c1ccccc1` , Long-term stability, 6 weeks, 4°C, without daylight Accuracy [%] observed: 86.6%

compound `Cn1cnc2c(F)c(Nc3ccc(Br)cc3F)c(C(=O)NOCCO)cc21` , Long-term stability, 6 weeks, 4°C, without daylight Accuracy [%] observed: 104.1%

compound `CC(C)(C)c1nc(-c2cccc(NS(=O)(=O)c3c(F)cccc3F)c2F)c(-c2ccnc(N)n2)s1` , Long-term stability, 6 weeks, 4°C, without daylight Accuracy [%] observed: 102.4%

###

protocolSummary: Long-term stability in spiked pooled human plasma
runConditions: validation standard MOV
recordedEndpoint: Long-term stability, 2 month, -20°C Accuracy [%] (%)
Just the number please, in %, no unit attached.

molecule `COc1cc2ncnc(Nc3ccc(F)c(Cl)c3)c2cc1NC(=O)/C=C/CN1CCCCC1` , Long-term stability, 2 month, -20°C Accuracy [%] observed: 95.1

molecule `COc1cc(N2CCC(N3CCN(C)CC3)CC2)ccc1Nc1ncc(Cl)c(Nc2ccccc2P(C)(C)=O)n1` , Long-term stability, 2 month, -20°C Accuracy [%] observed: 108.5

molecule `CC(C)(C)c1nc(-c2cccc(NS(=O)(=O)c3c(F)cccc3F)c2F)c(-c2ccnc(N)n2)s1` , Long-term stability, 2 month, -20°C Accuracy [%] observed: 97.8

molecule `COC(=O)N[C@@H](C)CNc1nccc(-c2cn(C(C)C)nc2-c2cc(Cl)cc(NS(C)(=O)=O)c2F)n1` , Long-term stability, 2 month, -20°C Accuracy [%] observed: 102.3

molecule `Cc1nc(Nc2ncc(C(=O)Nc3c(C)cccc3Cl)s2)cc(N2CCN(CCO)CC2)n1` , Long-term stability, 2 month, -20°C Accuracy [%] observed: 92.8

molecule CNC(=O)c1ccc(N2C(=S)N(c3ccc(C#N)c(C(F)(F)F)c3)C(=O)C2(C)C)cc1F [Enzalutamide] , Long-term stability, 2 month, -20°C Accuracy [%] observed: 92.8

molecule `C[C@]12CC[C@H](O)CC1=CC[C@@H]1[C@@H]2CC[C@]2(C)C(c3cccnc3)=CC[C@@H]12` , Long-term stability, 2 month, -20°C Accuracy [%] observed: 101.2

molecule `Cn1cnc2c(F)c(Nc3ccc(Br)cc3F)c(C(=O)NOCCO)cc21` , Long-term stability, 2 month, -20°C Accuracy [%] observed: 95.9

molecule Nc1cccc2c1C(=O)N(C1CCC(=O)NC1=O)C2=O (stereo not shown) [Pomalidomide] , Long-term stability, 2 month, -20°C Accuracy [%] observed: 97.2

molecule `CCN(CC)CCNC(=O)c1c(C)[nH]c(/C=C2\C(=O)Nc3ccc(F)cc32)c1C` , Long-term stability, 2 month, -20°C Accuracy [%] observed: 106.3

molecule `COc1cc2nccc(Oc3ccc(NC(=O)NC4CC4)c(Cl)c3)c2cc1C(N)=O` , Long-term stability, 2 month, -20°C Accuracy [%] observed: 98.2

molecule `CCC1=C[C@@H]2CN(C1)Cc1c([nH]c3ccccc13)[C@@](C(=O)OC)(c1cc3c(cc1OC)N(C)[C@H]1[C@@](O)(C(=O)OC)[C@H](OC(C)=O)[C@]4(CC)C=CCN5CC[C@]31[C@@H]54)C2` , Long-term stability, 2 month, -20°C Accuracy [%] observed: 89.2

molecule `O=C(c1ccc(F)c(F)c1Nc1ccc(I)cc1F)N1CC(O)([C@@H]2CCCCN2)C1` , Long-term stability, 2 month, -20°C Accuracy [%] observed: 100.8

molecule COc1cc2nccc(Oc3ccc(NC(=O)C4(C(=O)Nc5ccc(F)cc5)CC4)cc3)c2cc1OC [Cabozantinib] , Long-term stability, 2 month, -20°C Accuracy [%] observed: 101.6

molecule `CNC(=O)c1cc(Oc2ccc(NC(=O)Nc3ccc(Cl)c(C(F)(F)F)c3)cc2)ccn1` , Long-term stability, 2 month, -20°C Accuracy [%] observed: 112.2

molecule `CCN1CCN(Cc2ccc(Nc3ncc(F)c(-c4cc(F)c5nc(C)n(C(C)C)c5c4)n3)nc2)CC1` , Long-term stability, 2 month, -20°C Accuracy [%] observed: 107.3

molecule `Cc1ccc(NC(=O)c2ccc(CN3CCN(C)CC3)cc2)cc1Nc1nccc(-c2cccnc2)n1` , Long-term stability, 2 month, -20°C Accuracy [%] observed: 99.4

molecule `CN(C)C(=O)c1cc2cnc(Nc3ccc(N4CCNCC4)cn3)nc2n1C1CCCC1` , Long-term stability, 2 month, -20°C Accuracy [%] observed: 108.6

molecule `C#Cc1cccc(Nc2ncnc3cc(OCCOC)c(OCCOC)cc23)c1` , Long-term stability, 2 month, -20°C Accuracy [%] observed: 102.2

molecule `Cc1ccc(C(=O)Nc2ccc(CN3CCN(C)CC3)c(C(F)(F)F)c2)cc1C#Cc1cnc2cccnn12` , Long-term stability, 2 month, -20°C Accuracy [%] observed: 99.2

molecule `CNC(=O)c1cc(Oc2ccc(NC(=O)Nc3ccc(Cl)c(C(F)(F)F)c3)c(F)c2)ccn1` , Long-term stability, 2 month, -20°C Accuracy [%] observed: 105.8

molecule `CCc1cc2c(cc1N1CCC(N3CCOCC3)CC1)C(C)(C)c1[nH]c3cc(C#N)ccc3c1C2=O` , Long-term stability, 2 month, -20°C Accuracy [%] observed: 89.5

molecule `CS(=O)(=O)c1ccc(C(=O)Nc2ccc(Cl)c(-c3ccccn3)c2)c(Cl)c1` , Long-term stability, 2 month, -20°C Accuracy [%] observed: 103.0

molecule `COC(=O)c1ccc2c(c1)NC(=O)/C2=C(\Nc1ccc(N(C)C(=O)CN2CCN(C)CC2)cc1)c1ccccc1` , Long-term stability, 2 month, -20°C Accuracy [%] observed: 98.9

molecule `N#CC[C@H](C1CCCC1)n1cc(-c2ncnc3[nH]ccc23)cn1` , Long-term stability, 2 month, -20°C Accuracy [%] observed: 97.7

molecule `CC(=O)Nc1cccc(-n2c(=O)n(C3CC3)c(=O)c3c(Nc4ccc(I)cc4F)n(C)c(=O)c(C)c32)c1` , Long-term stability, 2 month, -20°C Accuracy [%] observed: 116.1

molecule `Cc1[nH]c2ccccc2c1CCNCc1ccc(/C=C/C(=O)NO)cc1` , Long-term stability, 2 month, -20°C Accuracy [%] observed: 75.7

molecule `C[C@@H](Oc1cc(-c2cnn(C3CCNCC3)c2)cnc1N)c1c(Cl)ccc(F)c1Cl` , Long-term stability, 2 month, -20°C Accuracy [%] observed: 96.3

molecule `O=C(c1cc(Cc2n[nH]c(=O)c3ccccc23)ccc1F)N1CCN(C(=O)C2CC2)CC1` , Long-term stability, 2 month, -20°C Accuracy [%] observed: 97.5

molecule `Cc1ccc(Nc2nccc(N(C)c3ccc4c(C)n(C)nc4c3)n2)cc1S(N)(=O)=O` , Long-term stability, 2 month, -20°C Accuracy [%] observed: 98.8

molecule `CC1(C)CCC(CN2CCN(c3ccc(C(=O)NS(=O)(=O)c4ccc(NCC5CCOCC5)c([N+](=O)[O-])c4)c(Oc4cnc5[nH]ccc5c4)c3)CC2)=C(c2ccc(Cl)cc2)C1` , Long-term stability, 2 month, -20°C Accuracy [%] observed: 109.3
